# tested.system: CYP3A4 (Homo sapiens)
# condition.summary: human, probe 7-benzyloxy-4-(trifluoromethyl)coumarin (BFC)
readout.label: IC50 (µM)

>  <compound>
OC(Cn1cncn1)(Cn1cncn1)c1ccc(F)cc1F

>  <result.value>
21

$$$$

---

# tested.system: Δ3–22 human CYP3A4 (WT) (Homo sapiens, UniProt P08684)
# test.description: biochemical
pKd: −log10 of the molar value.

>  <compound>
CC(C)(C(=O)c1cccnc1)c1cccnc1

>  <tested.system>
Δ3–22 human CYP3A4 (WT) (Homo sapiens, UniProt P08684)

>  <pKd>
5.62

$$$$

---

# tested.system: full-length human CYP3A4 (Homo sapiens, UniProt P08684)
pIC50: −log10 of the molar value.
readout.label: pIC50

>  <compound>
O=S(=O)(O)Cc1ccccc1 [PMSA, phenylmethanesulfonic acid]

>  <tested.system>
full-length human CYP3A4 (Homo sapiens, UniProt P08684)

>  <result.value>
< 1.70

$$$$
